- assay.target: Voltage-gated inwardly rectifying potassium channel KCNH2 (Homo sapiens) (UniProt Q12809)
- Sequence (Q12809 whole entry, looked up): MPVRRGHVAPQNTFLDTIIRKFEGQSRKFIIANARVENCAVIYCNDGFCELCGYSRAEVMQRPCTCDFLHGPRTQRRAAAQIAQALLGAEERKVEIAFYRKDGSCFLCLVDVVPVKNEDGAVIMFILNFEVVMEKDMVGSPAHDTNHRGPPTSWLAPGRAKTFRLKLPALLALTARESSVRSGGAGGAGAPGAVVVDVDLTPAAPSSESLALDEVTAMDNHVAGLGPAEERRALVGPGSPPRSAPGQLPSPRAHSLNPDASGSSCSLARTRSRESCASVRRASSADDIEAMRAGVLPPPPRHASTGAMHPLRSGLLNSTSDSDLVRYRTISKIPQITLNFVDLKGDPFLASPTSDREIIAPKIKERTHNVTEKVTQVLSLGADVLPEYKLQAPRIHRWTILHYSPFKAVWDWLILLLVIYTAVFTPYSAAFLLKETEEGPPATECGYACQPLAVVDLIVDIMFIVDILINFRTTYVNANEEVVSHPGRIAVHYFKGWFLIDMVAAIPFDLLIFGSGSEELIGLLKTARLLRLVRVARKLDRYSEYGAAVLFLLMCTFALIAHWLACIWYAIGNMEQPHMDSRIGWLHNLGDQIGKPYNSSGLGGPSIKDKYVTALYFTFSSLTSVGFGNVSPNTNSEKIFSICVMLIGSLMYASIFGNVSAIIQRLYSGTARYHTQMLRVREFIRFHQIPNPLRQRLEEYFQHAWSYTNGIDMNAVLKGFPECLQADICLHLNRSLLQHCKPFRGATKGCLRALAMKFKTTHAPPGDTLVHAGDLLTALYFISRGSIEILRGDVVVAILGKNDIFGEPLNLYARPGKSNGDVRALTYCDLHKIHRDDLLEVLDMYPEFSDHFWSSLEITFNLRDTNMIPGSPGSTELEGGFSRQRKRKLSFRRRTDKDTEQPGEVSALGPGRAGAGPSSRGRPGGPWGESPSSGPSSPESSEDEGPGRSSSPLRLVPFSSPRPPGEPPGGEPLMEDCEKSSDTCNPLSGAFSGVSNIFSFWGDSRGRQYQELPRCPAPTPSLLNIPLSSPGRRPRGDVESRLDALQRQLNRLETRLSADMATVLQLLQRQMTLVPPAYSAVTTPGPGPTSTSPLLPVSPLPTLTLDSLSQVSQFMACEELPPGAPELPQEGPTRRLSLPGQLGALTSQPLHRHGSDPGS
- procedure.details: Human Ether-a-go-go-Related Gene (hERG) channel small molecule antagonists: fluorescence cell-based qHTS assay (AID 1671200);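 note: hERG-expressing U2OS cells given a thallium stimulus after FluxOR II dye loading; nearly all actives have a fitted effect of over 50% in size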
- run.parameters: hERG-U2OS cells, FluxOR thallium flux fluorescence; series mostly up to 76.8 µM
Inconclusive results are not listed. Calls of active or inactive are those of the source. Calls come from the whole dose curve; as a rule, active = well fitted inhibition curve with a large enough effect in the repeat runs; inconclusive = weak or mixed curves; inactive = flat fitted curve, though single readings scatter.
API: response.call in active, inactive

# structure, qualitative.label
records = [
    ("CN1CCCN=C1/C=C/c1cccs1", "inactive"),
]

Please let me know the test result on file for CCc1c2c(nc3ccc(OC(=O)N4CCC(N5CCCCC5)CC4)cc13)-c1cc3c(c(=O)n1C2)COC(=O)[C@]3(O)CC .
inactive

Please let me know the test result on file for C=CC(C)=CCC=C(C)C .
inactive
